Source of measurements: patent US20210261561A1

Recorded selectivity for the following compounds
- system-under-test: BACE1 (Homo sapiens, UniProt P56817)
- Sequence (P56817 46-501): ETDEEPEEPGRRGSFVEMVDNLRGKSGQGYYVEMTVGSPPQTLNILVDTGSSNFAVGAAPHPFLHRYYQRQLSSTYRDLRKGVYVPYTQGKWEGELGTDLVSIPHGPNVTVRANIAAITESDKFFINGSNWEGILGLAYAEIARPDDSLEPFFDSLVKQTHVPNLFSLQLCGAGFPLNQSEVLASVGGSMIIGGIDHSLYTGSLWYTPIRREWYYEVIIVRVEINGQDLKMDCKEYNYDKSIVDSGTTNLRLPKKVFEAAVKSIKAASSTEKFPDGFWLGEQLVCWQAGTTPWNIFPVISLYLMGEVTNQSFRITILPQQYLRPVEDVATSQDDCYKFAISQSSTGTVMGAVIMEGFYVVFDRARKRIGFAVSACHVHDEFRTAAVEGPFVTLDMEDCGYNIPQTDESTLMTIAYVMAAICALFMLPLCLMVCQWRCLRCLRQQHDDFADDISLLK
- test-summary: BACE1 biochemical FRET based assay (Test Example 2-1)
- measurement-conditions: BACE2 IC50 over BACE1 IC50 (FRET)
recorded-endpoint: selectivity

1. CN1C(N)=N[C@](C)(c2cc(NC(=O)c3cc4c(cn3)OCC(F)(F)O4)ccc2F)CS1(=O)=O; 38.9
2. C[C@@H]1OC[C@H]2OC(N)=N[C@](CF)(c3cc(NC(=O)c4cc5c(cn4)OC(F)(F)CO5)ccc3F)[C@@H]12; 131
3. NC1=N[C@](CF)(c2cc(NC(=O)c3cc4c(cn3)OC(F)(F)CO4)ccc2F)[C@H]2CCOC[C@H]2O1; 263
4. C[C@@H]1COc2cc(C(=O)Nc3ccc(F)c([C@]4(C)CS(=O)(=O)N(C)C(N)=N4)c3)ncc2O1; 19.5
5. [2H]C1([2H])Oc2cnc(C(=O)Nc3ccc(F)c([C@]4(C)CS(=O)(=O)N(C)C(N)=N4)c3)cc2OC1([2H])[2H]; 60.0
6. NC1=N[C@](CF)(c2cc(NC(=O)c3cc4c(cn3)OC(F)(F)CO4)ccc2F)[C@H]2CO[C@H](CF)C[C@H]2O1; 389

###

- system-under-test: BACE1 (Homo sapiens, UniProt P56817)
- test-summary: BACE1 biochemical FRET based assay (Test Example 2-1)
- measurement-conditions: BACE2 IC50 over BACE1 IC50 (FRET)
Documented selectivity across a set of compounds
recorded-endpoint: selectivity

1. CN1C(N)=N[C@](C)(c2cc(NC(=O)c3cc4c(cn3)OCCO4)ccc2F)CS1(=O)=O [Compound I-005]; 38.0
2. CC[C@@H]1OC[C@H]2OC(N)=N[C@](CF)(c3cc(NC(=O)c4cc5c(cn4)OC(F)(F)CO5)ccc3F)[C@@H]12 [Compound I-040]; 257
3. NC1=N[C@](CF)(c2cc(NC(=O)c3cc4c(cn3)OC(F)(F)CO4)ccc2F)[C@H]2OCC[C@H]2O1 [Compound I-043]; 234
4. NC1=N[C@](CF)(c2cc(NC(=O)c3cc4c(cn3)OC(F)(F)CO4)ccc2F)[C@H]2COCC[C@H]2O1 [Compound I-035]; 301
5. CN1C(N)=N[C@](C)(c2cc(NC(=O)c3cc4c(cn3)O[C@H](F)CO4)ccc2F)CS1(=O)=O [Compound I-015]; 10.5
6. C[C@@H]1C[C@H]2OC(N)=N[C@](CF)(c3cc(NC(=O)c4cc5c(cn4)OCCO5)ccc3F)[C@H]2CO1 [Compound I-054]; 646
7. C[C@@H]1COc2cnc(C(=O)Nc3ccc(F)c([C@]4(C)CS(=O)(=O)N(C)C(N)=N4)c3)cc2O1 [Compound I-002]; 44.7

###

pKi: −log10 of the molar value.
The listing below reports pKi for molecules tested on BACE1 (Homo sapiens, UniProt P56817).
recorded-endpoint: pKi

1. CC1(S(C)(=O)=O)CCC(CF)(c2cc(NC(=O)c3ncc4c(n3)OCCO4)cc(F)c2F)N=C1N (centres unmarked) [II-22]; 9.43
2. CC1(S(C)(=O)=O)CCC(CF)(c2cc(NC(=O)c3cc4c(cn3)OCCO4)ccc2F)N=C1N (centres unmarked) [II-1]; 9.43
3. CC1(S(C)(=O)=O)CCC(CF)(c2cc(NC(=O)c3ncc4c(c3Cl)OCCO4)ccc2F)N=C1N (centres unmarked) [II-26]; 9.36
4. CC1(S(C)(=O)=O)CCC(CF)(c2cc(NC(=O)c3ncc4c(c3F)OC(F)(F)O4)ccc2F)N=C1N (centres unmarked) [II-13]; 9.11
5. CC(C)S(=O)(=O)C1(C)CCC(CF)(c2cc(NC(=O)c3cc4c(cn3)OC(F)(F)CO4)ccc2F)N=C1N (centres unmarked) [II-28]; 9.38
6. CC1(S(C)(=O)=O)CCC(CF)(c2cc(NC(=O)c3ncc4c(c3F)OCCO4)ccc2F)N=C1N (centres unmarked) [II-8]; 9.77
7. CC1(S(C)(=O)=O)CCC(CF)(c2cc(NC(=O)c3ncc4c(c3Cl)OC(F)(F)O4)ccc2F)N=C1N (centres unmarked) [II-25]; 8.87
8. CC1(S(C)(=O)=O)CCC(CF)(c2cc(NC(=O)c3cc4c(cn3)OCO4)ccc2F)N=C1N (centres unmarked) [II-4]; 9.74
